# test-target: Yap3 (UniProt P38749)
# Sequence: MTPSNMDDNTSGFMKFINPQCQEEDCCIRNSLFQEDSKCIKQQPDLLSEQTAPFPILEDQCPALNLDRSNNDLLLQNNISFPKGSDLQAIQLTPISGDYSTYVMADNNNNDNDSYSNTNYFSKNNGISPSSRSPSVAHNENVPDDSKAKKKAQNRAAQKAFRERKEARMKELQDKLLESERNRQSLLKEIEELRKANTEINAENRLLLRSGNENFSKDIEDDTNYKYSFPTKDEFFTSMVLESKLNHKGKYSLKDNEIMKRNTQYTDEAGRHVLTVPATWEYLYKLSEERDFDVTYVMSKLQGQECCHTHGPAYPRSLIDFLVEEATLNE
# test-method-notes: PBM E-score (8-mer binding enrichment) (E-score (-0.5 to 0.5)); higher = stronger / more preferred TF binding
# experimental-conditions: protein concentration: 100 nM; construct: GST-full length
In all, about 33,000 sequences were measured (“E-score (-0.5 to 0.5)”: median about -0.0034, highest 2% from about 0.25 on). The sample holds the highest values, similar sequences and a random draw of the others, so the mix is not that of the screen.
endpoint: PBM E-score

INSERT INTO measurements (construct_sequence, endpoint, result) VALUES
  ('GCATAAAA', 'PBM E-score', 0.147),
  ('CTACAAAA', 'PBM E-score', 0.0817),
  ('ATATCAGG', 'PBM E-score', -0.0437),
  ('GTACAAAA', 'PBM E-score', 0.233),
  ('ATATCAAG', 'PBM E-score', 0.26),
  ('AATGCGAC', 'PBM E-score', 0.106),
  ('AGATAAGG', 'PBM E-score', -0.0911),
  ('CGATAGAA', 'PBM E-score', 0.0788),
  ('GACACTAA', 'PBM E-score', 0.064),
  ('CATAAGAG', 'PBM E-score', -0.071),
  ('CGATTAGC', 'PBM E-score', -0.102),
  ('ATTACCGG', 'PBM E-score', -0.0144),
  ('GCAGATAA', 'PBM E-score', -0.0214),
  ('CAGACCTC', 'PBM E-score', -0.181),
  ('ATATCAAC', 'PBM E-score', 0.166),
  ('ATCCGTTC', 'PBM E-score', 0.057),
  ('CGTTTCCA', 'PBM E-score', 0.105),
  ('ATATCAAT', 'PBM E-score', 0.268),
  ('ATACAAAT', 'PBM E-score', 0.173),
  ('ATACAAAA', 'PBM E-score', 0.284),
  ('AGAACGAA', 'PBM E-score', 0.233),
  ('CTATCAAG', 'PBM E-score', 0.067);

---

# test-target: Yap3 (UniProt P38749)
# Sequence: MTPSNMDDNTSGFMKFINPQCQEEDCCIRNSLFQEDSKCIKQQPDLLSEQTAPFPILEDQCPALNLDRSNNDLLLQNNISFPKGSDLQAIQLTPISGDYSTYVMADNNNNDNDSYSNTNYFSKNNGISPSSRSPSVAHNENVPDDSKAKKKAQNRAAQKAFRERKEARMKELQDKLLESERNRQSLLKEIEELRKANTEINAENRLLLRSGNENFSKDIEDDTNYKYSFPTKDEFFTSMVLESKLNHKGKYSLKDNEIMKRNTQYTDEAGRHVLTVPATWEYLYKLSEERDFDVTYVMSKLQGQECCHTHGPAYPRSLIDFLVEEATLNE
# test-method-notes: PBM E-score (8-mer binding enrichment) (E-score (-0.5 to 0.5)); higher = stronger / more preferred TF binding
# experimental-conditions: protein concentration: 100 nM; construct: GST-full length
Over roughly 33,000 sequences, “E-score (-0.5 to 0.5)” has its median near -0.0034; the highest 2% begin near 0.25. Many of the other results were omitted from the sample, so the highest values are more common in it than they were.
endpoint: PBM E-score

INSERT INTO results (construct_sequence, result_number) VALUES
  ('ATAATTAC', 0.333),
  ('ATTATCGA', 0.132),
  ('AAAAACTC', 0.072),
  ('ATTAGTGA', 0.179),
  ('ACTACCTG', 0.0736),
  ('CGCTACAC', -0.0665),
  ('GAGCCTTA', -0.0398),
  ('CGTAATGC', 0.203),
  ('CTAATTAC', 0.253),
  ('GGATCCAA', 0.138),
  ('AGTTGAAC', 0.00888),
  ('ATTATCTC', 0.268),
  ('AATCATGG', 0.127),
  ('CTTTTAAC', 0.0122),
  ('GGTAATAA', 0.165),
  ('CAACATAG', 0.144),
  ('ATTAGTCG', 0.12),
  ('ATACGTAA', 0.266),
  ('AGTAATAT', 0.295),
  ('GGAATCTA', 0.0443),
  ('CGACTCCG', -0.24),
  ('AAACATAA', 0.202),
  ('AAGAGCAC', -0.0358),
  ('GCGTTAGA', 0.0241),
  ('CTTGAGCA', -0.119),
  ('GCACTTAC', 0.0227),
  ('CGTAATAA', 0.29),
  ('GAGGACGC', -0.1),
  ('TGTAATAA', 0.242),
  ('CGTAATAG', 0.314),
  ('AGTAATAG', 0.207),
  ('ATTAGTCA', 0.42),
  ('ATTATCTG', 0.119),
  ('CAACATAC', 0.0807),
  ('AATCATGA', 0.275),
  ('ATAAGTCC', 0.0332),
  ('AGCAAAGA', 0.0203),
  ('AAGCCTGG', -0.0378),
  ('ATTAGTGC', 0.299),
  ('ATAAGTCA', 0.262),
  ('GCTCCTTA', 0.0472),
  ('GACGGGGA', -0.164),
  ('AGAATTAG', 0.0612),
  ('AGTAATAC', 0.113),
  ('CTTAGTCA', 0.373),
  ('ATACGTAC', 0.0322);

---

# test-target: Yap3 (UniProt P38749)
# Sequence: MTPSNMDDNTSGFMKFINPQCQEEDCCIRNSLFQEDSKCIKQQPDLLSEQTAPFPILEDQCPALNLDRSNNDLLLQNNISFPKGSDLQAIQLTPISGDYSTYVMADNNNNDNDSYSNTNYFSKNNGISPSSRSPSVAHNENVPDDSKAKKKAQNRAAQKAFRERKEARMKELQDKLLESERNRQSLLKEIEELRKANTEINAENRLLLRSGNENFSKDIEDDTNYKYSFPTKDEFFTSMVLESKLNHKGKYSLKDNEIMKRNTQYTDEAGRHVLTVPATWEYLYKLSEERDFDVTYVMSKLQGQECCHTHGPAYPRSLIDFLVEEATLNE
# test-method-notes: PBM E-score (8-mer binding enrichment) (E-score (-0.5 to 0.5)); higher = stronger / more preferred TF binding
# experimental-conditions: protein concentration: 100 nM; construct: GST-full length
Over roughly 33,000 sequences, “E-score (-0.5 to 0.5)” has its median near -0.0034; the highest 2% begin near 0.25. What follows is part of a selection rich in the highest values, with near analogues and random picks from the rest.
# binarize PBM E-score: threshold 0.2 inclusive, high side Met, low side Not met

INSERT INTO results (construct_sequence, label_value) VALUES
  ('TGTTGGAA', 'Not met'),
  ('CCAATTAA', 'Not met'),
  ('GCAAATCC', 'Not met'),
  ('GTAATTGA', 'Not met'),
  ('AATTTAGT', 'Met'),
  ('ACTATTTC', 'Met'),
  ('AATTTAAC', 'Not met'),
  ('CACCTCTA', 'Not met'),
  ('ATATAAAA', 'Met'),
  ('ATTTATTG', 'Not met'),
  ('GTAATTAC', 'Met'),
  ('CCAATTAC', 'Met'),
  ('ATTTCGAC', 'Not met'),
  ('AATTTACC', 'Not met'),
  ('AAGAAGCA', 'Not met'),
  ('AATTTAAT', 'Met'),
  ('CTAATTAA', 'Not met'),
  ('TTATAAAA', 'Met'),
  ('ATACTTCG', 'Not met'),
  ('AAATTATT', 'Met'),
  ('ACATTTCG', 'Not met'),
  ('ACTTTACA', 'Not met'),
  ('ACAACATG', 'Not met'),
  ('TTAATTAA', 'Not met'),
  ('CGATGGCC', 'Not met'),
  ('ACGTCAGC', 'Not met'),
  ('CTTATTTC', 'Met'),
  ('ATTTATTA', 'Met'),
  ('AATTTACT', 'Met'),
  ('ACAACTGC', 'Not met'),
  ('GGATAAAA', 'Not met'),
  ('ATTTTACC', 'Met'),
  ('AAATTATG', 'Met'),
  ('AATATTTC', 'Not met'),
  ('ATTTTACA', 'Not met'),
  ('GCATTGTA', 'Not met'),
  ('AATTTACA', 'Not met'),
  ('GGAATTAC', 'Met'),
  ('TGGGGACA', 'Not met'),
  ('ATGCCGTC', 'Not met'),
  ('AATTTAAG', 'Not met'),
  ('ATCCTCTC', 'Not met'),
  ('AATTTACG', 'Met'),
  ('AATATTTA', 'Met');
